# System tested: Caspase-1 (Homo sapiens)
# Assay: Inhibition of recombinant human caspase-1 expressed in Escherichia coli BL21 cells at 5 to 50 uM using […] as substrate incubated for 30 mins
# Test context: dose 5-50 µM
Calls of active or inactive are those of the source. The calls are words filed in the database; no cut-off is given here.
Hi there, use one of these labels in your reply, thanks! 1 for active, 0 for inactive

# input Can you look up the reported call for COc1ccc2c(c1)[C@@]1(C=C[C@@H](N=C=S)C[C@@H]1C(=O)OC(C)(C)C)C(=O)N2C(=O)OCc1ccccc1 for me?
# output 1

# input Can you look up the reported call for COc1ccc2c(c1)[C@@]1(C(=O)N2C(=O)OCc2ccccc2)[C@@H](SC#N)C=CC[C@H]1C(=O)OC(C)(C)C for me?
# output 0

This collection of values is drawn from ChEMBL document CHEMBL5584334.
